The values you see were collected from patent US8232407B2.

Recorded Pseudaletia separate Walker Mortality (%) 500 ppm, one value per entry.
# System: Pseudaletia separate Walker
# PROTOCOL_DETAILS: Insecticidal activities to armyworm, leaf dipping and feeding
# Assay type: in vivo
# RUN_PARAMETERS: in vivo
# Method: Mortality (%)=(the number of the survival aphis in control group−the number of the survival aphis in the treatment group)/the number of the survival aphis in control group×100% (3): Insecticidal Activities to Armyworm Armyworm (Pseudaletia separate Walker) was tested by the way of leaf dipping and feeding. […] The number of killed insects was counted after 24 hours to calculate the mortality according to the above mentioned formula.
Hi! Could you send only the number? It should be in %, unit omitted.

For orientation, consider the following solved cases.
| COMPOUND | VALUE_UNIT | REPORTED |
| --- | --- | --- |
| O=[N+]([O-])C(=Cc1cc(Br)cs1)C1=NCCN1Cc1ccc(Cl)nc1 | % | 100 |
| CCC(c1ccc(Cl)nc1)N1CCN=C1C(=Cc1ccc[nH]1)[N+](=O)[O-] (racemic) | % | 89 |
| O=[N+]([O-])C(=Cc1ccc(Cl)s1)C1=NCCN1Cc1ccc(Cl)nc1 | % | 100 |

Here's the next entry for you.
[Q] Tell me measured Pseudaletia separate Walker Mortality (%) 500 ppm for CC(=C(C1=NCCN1C(C)c1ccc(Cl)nc1)[N+](=O)[O-])c1ccc(Br)o1 (racemic) please.
[A] 100
